Values compiled from patent EP0099194A2.

Entries and their measured ED50 follow.
- Test system: 5-MDMT induced symptoms
- test-protocol: Anti-5HT activity: inhibition of 5-MDMT induced symptoms in rats
- Assay type: in vivo
- condition-info: po; Rat
The reply should be a number in mg/kg, with the unit left off.

Before answering, review these 3 worked examples.
compound: COc1cc(N)c(Cl)cc1C(=O)NC1CC2CCCC(C1)N2CC(C)(C)C (stereo not shown) [Example 4]
reading: 6.2
//
compound: COc1cc(N)c(Cl)cc1C(=O)NC1CC2CCC(C1)N2CC(C)(C)C (stereo not shown) [Example 2]
reading: 7.2
//
compound: COc1cc(NC(C)=O)c(Cl)cc1C(=O)N[C@@H]1C[C@H]2CC[C@@H](C1)N2CC(C)(C)C [Example 1]
reading: 10

GET /value?item= COc1cc(NC(C)=O)c(Cl)cc1C(=O)NC1CC2CCCC(C1)N2CC(C)(C)C (stereo not shown) [Example 6] &field=ED50 returns 10
